test method notes: Selectivity index, ratio of IC50 for cytotoxicity against mouse 3T3-L1 cells to EC50 for anti-adipogenic activity against mouse 3T3-L1 cells
Assay type: cell-based
experimental context: read-out: Ratio IC50/EC50

| query smiles | selectivity ratio |
| --- | --- |
| C=C(C)[C@@]12OC3(c4ccccc4)O[C@@H]1[C@@H]1[C@H](O)[C@](Cl)(COC(=O)c4ccccc4)[C@@H](O)[C@]4(O)C(=O)C(C)=C[C@H]4[C@@]1(O3)[C@H](C)[C@H]2OC(C)=O | > 1030 |

----------
test method notes: Cytotoxicity against mouse 3T3-L1 cells assessed as reduction in cell viability incubated for 24 hrs by MTT assay
Format: toxicity, cell-based
property name: IC50 at 24 h

| query smiles | observed value |
| --- | --- |
| C=C(C)[C@@]12OC3(c4ccccc4)O[C@@H]1[C@@H]1[C@H](O)[C@](Cl)(COC(=O)c4ccccc4)[C@@H](O)[C@]4(O)C(=O)C(C)=C[C@H]4[C@@]1(O3)[C@H](C)[C@H]2OC(C)=O | > 100 µM |
